- TARGET_OF_ASSAY: human Chk2 kinase (Homo sapiens, UniProt O96017)
- Sequence (O96017 whole entry): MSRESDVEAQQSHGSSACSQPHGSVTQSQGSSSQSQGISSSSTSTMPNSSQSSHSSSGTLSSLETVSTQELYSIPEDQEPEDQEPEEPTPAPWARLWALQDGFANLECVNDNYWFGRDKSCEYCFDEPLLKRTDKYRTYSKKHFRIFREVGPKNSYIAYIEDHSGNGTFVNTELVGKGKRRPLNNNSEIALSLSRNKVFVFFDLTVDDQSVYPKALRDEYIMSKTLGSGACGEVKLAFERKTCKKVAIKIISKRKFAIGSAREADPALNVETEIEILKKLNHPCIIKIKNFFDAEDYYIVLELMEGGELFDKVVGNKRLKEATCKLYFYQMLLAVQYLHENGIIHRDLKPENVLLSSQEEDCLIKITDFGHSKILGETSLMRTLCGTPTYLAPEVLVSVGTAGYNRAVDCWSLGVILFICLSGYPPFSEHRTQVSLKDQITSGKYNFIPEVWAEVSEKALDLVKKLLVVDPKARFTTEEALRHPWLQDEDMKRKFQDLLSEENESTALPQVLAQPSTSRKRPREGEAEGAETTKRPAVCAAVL
- ASSAY_COMMENT: In vitro phosphorylation (kination) of membrane-immobilized peptides by human Chk2 kinase (Gst-Chk2)
- Format: biochemical
- Design: key: a “+++” indicates the peptide was relatively highly phosphorylated; a “++” indicates the peptide was relatively less phosphorylated; a “+” indicates the peptide was detectably significantly phosphorylated over negative control; no indication indicates that a peptide was not significantly phosphorylated over negative control
- TEST_PARAMETERS: peptide synthesized on membrane (about 0.1 micro-mol/cm^2); Gst-Chk2 about 5 μg in 4 ml reaction buffer, γ-33P-ATP, RT 1 hr; image analyzer signal graded −, +, ++, +++
MEASURED_METRIC: in vitro phosphorylation by human Chk2 kinase (graded signal)

- SEQ_TEXT: "LYSSPSHWENL"
  ASSAY_RESULT: "++"
- SEQ_TEXT: "LFTSPSYWENL"
  ASSAY_RESULT: "+"
- SEQ_TEXT: "LYRSPSNWENL"
  ASSAY_RESULT: "+"
- SEQ_TEXT: "LYTSPSFYENL"
  ASSAY_RESULT: "++"
- SEQ_TEXT: "LFTSPSYFENL"
  ASSAY_RESULT: "+"
- SEQ_TEXT: "LYHSPSYWENL"
  ASSAY_RESULT: "+"

Shift focus to the following entry.
For reference, reported in vitro phosphorylation by human Chk2 kinase (graded signal) for `LYTSPSHFENL` stands at +

---

- TARGET_OF_ASSAY: human Chk2 kinase (Homo sapiens, UniProt O96017)
- ASSAY_COMMENT: In vitro phosphorylation (kination) of membrane-immobilized peptides by human Chk2 kinase (Gst-Chk2)
- Assay type: biochemical
- Design: key: a “+++” indicates the peptide was relatively highly phosphorylated; a “++” indicates the peptide was relatively less phosphorylated; a “+” indicates the peptide was detectably significantly phosphorylated over negative control; no indication indicates that a peptide was not significantly phosphorylated over negative control
- TEST_PARAMETERS: peptide synthesized on membrane, about 0.1 micro-mol/cm^2; Gst-Chk2 about 5 μg in 4 ml, γ-33P-ATP, RT 1 hr; image analyzer signal graded −, +, ++, +++
MEASURED_METRIC: in vitro phosphorylation by human Chk2 kinase (graded signal)

- SUBSTANCE: "1128 (WYRSPSFFENL) [compound 1128]"
  TARGET_OF_ASSAY: "human Chk2 kinase (Homo sapiens, UniProt O96017)"
  ASSAY_RESULT: "++"
- SUBSTANCE: "1127 (WYRSPSFPENL) [compound 1127]"
  TARGET_OF_ASSAY: "human Chk2 kinase (Homo sapiens, UniProt O96017)"
  ASSAY_RESULT: "++"
- SUBSTANCE: "1129 (WYRSPSFYENL) [compound 1129]"
  TARGET_OF_ASSAY: "human Chk2 kinase (Homo sapiens, UniProt O96017)"
  ASSAY_RESULT: "+++"
- SUBSTANCE: "1132 (WYRSPSYPENL) [compound 1132]"
  TARGET_OF_ASSAY: "human Chk2 kinase (Homo sapiens, UniProt O96017)"
  ASSAY_RESULT: "++"
- SUBSTANCE: "1134 (WYRSPSYYENL) [compound 1134]"
  TARGET_OF_ASSAY: "human Chk2 kinase (Homo sapiens, UniProt O96017)"
  ASSAY_RESULT: "++"
- SUBSTANCE: "1130 (WYRSPSFWENL) [compound 1130]"
  TARGET_OF_ASSAY: "human Chk2 kinase (Homo sapiens, UniProt O96017)"
  ASSAY_RESULT: "++"

# in vitro phosphorylation by human Chk2 kinase (graded signal) of 1212 (WYTSPSYPENL) [compound 1212] = ++

// recorded in vitro phosphorylation by human Chk2 kinase (graded signal) for 1124 (WYRSPSMYENL) [compound 1124] : ++

// in vitro phosphorylation by human Chk2 kinase (graded signal) value for 1125 (WYRSPSMWENL) [compound 1125] : ++

---

- TARGET_OF_ASSAY: human Chk2 kinase (Homo sapiens, UniProt O96017)
- ASSAY_COMMENT: In vitro phosphorylation (kination) of membrane-immobilized peptides by human Chk2 kinase (Gst-Chk2)
- Format: biochemical
- Parameters: key: a “+++” indicates the peptide was relatively highly phosphorylated; a “++” indicates the peptide was relatively less phosphorylated; a “+” indicates the peptide was detectably significantly phosphorylated over negative control; no indication indicates that a peptide was not significantly phosphorylated over negative control
- TEST_PARAMETERS: peptide synthesized on membrane (about 0.1 micro-mol/cm^2); Gst-Chk2 about 5 μg in 4 ml reaction buffer, γ-33P-ATP, RT 1 hr; image analyzer signal graded −, +, ++, +++
MEASURED_METRIC: in vitro phosphorylation by human Chk2 kinase (graded signal)

Reference set, count: 4
- SEQ_TEXT: "LYTSPSHYENL"
  ASSAY_RESULT: "+"
- SEQ_TEXT: "LYSSPSFPENL"
  ASSAY_RESULT: "+"
- SEQ_TEXT: "LYTSPSNWENL"
  ASSAY_RESULT: "+"
- SEQ_TEXT: "LYHSPSYPENL"
  ASSAY_RESULT: "+"

// next item, in vitro phosphorylation by human Chk2 kinase (graded signal) requested
// `LYSSPSYWENL` : in vitro phosphorylation by human Chk2 kinase (graded signal) value = +

---

- TARGET_OF_ASSAY: human Chk2 kinase (Homo sapiens)
- ASSAY_COMMENT: In vitro phosphorylation (kination) of membrane-immobilized peptides by human Chk2 kinase (Gst-Chk2)
- Type: biochemical
- Design: key: a “+++” indicates the peptide was relatively highly phosphorylated; a “++” indicates the peptide was relatively less phosphorylated; a “+” indicates the peptide was detectably significantly phosphorylated over negative control; no indication indicates that a peptide was not significantly phosphorylated over negative control
- TEST_PARAMETERS: peptide synthesized on membrane (about 0.1 micro-mol/cm^2); Gst-Chk2 about 5 μg in 4 ml reaction buffer, γ-33P-ATP, RT 1 hr; image analyzer signal graded −, +, ++, +++
MEASURED_METRIC: in vitro phosphorylation by human Chk2 kinase (graded signal)

A selection of reference data follows.
- SEQ_TEXT: "LYSSPSFWENL"
  ASSAY_RESULT: "+"
- SEQ_TEXT: "LYSSPSYPENL"
  ASSAY_RESULT: "+"
- SEQ_TEXT: "LYSSPSFYENL"
  ASSAY_RESULT: "+"
- SEQ_TEXT: "LYSSPSYYENL"
  ASSAY_RESULT: "+"
- SEQ_TEXT: "LYRSPSNPENL"
  ASSAY_RESULT: "+"

Form field in vitro phosphorylation by human Chk2 kinase (graded signal), entry `LYTSPSFWENL` : ++

Summary for this sequence, `LYSSPSHPENL` : in vitro phosphorylation by human Chk2 kinase (graded signal) is ++

// `LYTSPSFFENL` : in vitro phosphorylation by human Chk2 kinase (graded signal) value = ++

The reported value for `LYSSPSFFENL` in terms of in vitro phosphorylation by human Chk2 kinase (graded signal) is +

---

- TARGET_OF_ASSAY: human Chk2 kinase (Homo sapiens)
- ASSAY_COMMENT: In vitro phosphorylation (kination) of membrane-immobilized peptides by human Chk2 kinase (Gst-Chk2)
- Assay type: biochemical
- Parameters: key: a “+++” indicates the peptide was relatively highly phosphorylated; a “++” indicates the peptide was relatively less phosphorylated; a “+” indicates the peptide was detectably significantly phosphorylated over negative control; no indication indicates that a peptide was not significantly phosphorylated over negative control
- TEST_PARAMETERS: peptide synthesized on membrane (about 0.1 micro-mol/cm^2); Gst-Chk2 about 5 μg in 4 ml reaction buffer, γ-33P-ATP, RT 1 hr; image analyzer signal graded −, +, ++, +++
MEASURED_METRIC: in vitro phosphorylation by human Chk2 kinase (graded signal)

- SEQ_TEXT: "LYTSPSMFENL"
  ASSAY_RESULT: "++"
- SEQ_TEXT: "LYTSPSHWENL"
  ASSAY_RESULT: "+"
- SEQ_TEXT: "LYRSPSHPENL"
  ASSAY_RESULT: "+"
- SEQ_TEXT: "LYTSPSNFENL"
  ASSAY_RESULT: "+"

Entry `LYRSPSYYENL` , in vitro phosphorylation by human Chk2 kinase (graded signal) reported as +

---

- TARGET_OF_ASSAY: human Chk2 kinase (Homo sapiens, UniProt O96017)
- ASSAY_COMMENT: In vitro phosphorylation (kination) of membrane-immobilized peptides by human Chk2 kinase (Gst-Chk2)
- Assay type: biochemical
- Design: key: a “+++” indicates the peptide was relatively highly phosphorylated; a “++” indicates the peptide was relatively less phosphorylated; a “+” indicates the peptide was detectably significantly phosphorylated over negative control; no indication indicates that a peptide was not significantly phosphorylated over negative control
- TEST_PARAMETERS: peptide synthesized on membrane (about 0.1 micro-mol/cm^2); Gst-Chk2 about 5 μg in 4 ml reaction buffer, γ-33P-ATP, RT 1 hr; image analyzer signal graded −, +, ++, +++
MEASURED_METRIC: in vitro phosphorylation by human Chk2 kinase (graded signal)

A selection of reference data follows.
- SEQ_TEXT: "LYHSPSYFENL"
  TARGET_OF_ASSAY: "human Chk2 kinase (Homo sapiens, UniProt O96017)"
  ASSAY_RESULT: "+"
- SEQ_TEXT: "LYTSPSYYENL"
  TARGET_OF_ASSAY: "human Chk2 kinase (Homo sapiens, UniProt O96017)"
  ASSAY_RESULT: "+++"
- SEQ_TEXT: "LYRSPSNYENL"
  TARGET_OF_ASSAY: "human Chk2 kinase (Homo sapiens, UniProt O96017)"
  ASSAY_RESULT: "+"
- SEQ_TEXT: "LYRSPSYFENL"
  TARGET_OF_ASSAY: "human Chk2 kinase (Homo sapiens, UniProt O96017)"
  ASSAY_RESULT: "+"
- SEQ_TEXT: "LYSSPSQPENL"
  TARGET_OF_ASSAY: "human Chk2 kinase (Homo sapiens, UniProt O96017)"
  ASSAY_RESULT: "+"
- SEQ_TEXT: "LYSSPSHFENL"
  TARGET_OF_ASSAY: "human Chk2 kinase (Homo sapiens, UniProt O96017)"
  ASSAY_RESULT: "++"
- SEQ_TEXT: "LYRSPSHYENL"
  TARGET_OF_ASSAY: "human Chk2 kinase (Homo sapiens, UniProt O96017)"
  ASSAY_RESULT: "+"
- SEQ_TEXT: "LYHSPSYYENL"
  TARGET_OF_ASSAY: "human Chk2 kinase (Homo sapiens, UniProt O96017)"
  ASSAY_RESULT: "+++"

The sequence `LYTSPSNPENL` showed in vitro phosphorylation by human Chk2 kinase (graded signal) equal to +

For `LYTSPSMWENL` the sequence record lists in vitro phosphorylation by human Chk2 kinase (graded signal) as ++

Reference for the values: patent US7851592B2
